conditions: in methanol, 285.65 K

{"columns": ["compound_smiles", "solubility (mole fraction)"],
 "data": [
  ["Cc1cc([N+](=O)[O-])ccc1N", 0.0109]
]}

---

conditions: in acetonitrile, 290.65 K
test_readout: solubility (mole fraction)

{"columns": ["compound_smiles", "experimental_result"],
 "data": [
  ["Cc1cc([N+](=O)[O-])ccc1N", 0.0456]
]}

---

conditions: in acetone, 288.15 K

{"columns": ["compound_smiles", "solubility (mole fraction)"],
 "data": [
  ["Cc1cc([N+](=O)[O-])ccc1N", 0.0996]
]}

---

settings: in methanol, 283.15 K

{"columns": ["compound_smiles", "solubility (mole fraction)"],
 "data": [
  ["Cc1cc([N+](=O)[O-])ccc1N", 0.0101]
]}

Recorded values, source BigSolDB 2.1.
